src = patent US20190202907A1

Target: T1, human ST2L (human, UniProt Q01638 19-328, limits assumed)
T1 construct: also called IL-1R4; IL-33Ra
T1 sequence (looked up): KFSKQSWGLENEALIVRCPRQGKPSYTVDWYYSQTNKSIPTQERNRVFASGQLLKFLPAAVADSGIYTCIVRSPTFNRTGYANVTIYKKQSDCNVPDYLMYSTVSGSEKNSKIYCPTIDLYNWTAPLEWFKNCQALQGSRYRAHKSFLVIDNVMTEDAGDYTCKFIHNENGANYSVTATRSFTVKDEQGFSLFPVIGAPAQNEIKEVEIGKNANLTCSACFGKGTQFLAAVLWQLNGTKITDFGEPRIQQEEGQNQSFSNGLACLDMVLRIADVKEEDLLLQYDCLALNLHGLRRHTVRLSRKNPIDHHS
Test: affinity table; method not stated
Readings of kon for the listed binders
# output: bare number, implied unit M⁻¹ s⁻¹

[Q] For the binder STLM217 (antibody, from another filing, V domains shown) VH: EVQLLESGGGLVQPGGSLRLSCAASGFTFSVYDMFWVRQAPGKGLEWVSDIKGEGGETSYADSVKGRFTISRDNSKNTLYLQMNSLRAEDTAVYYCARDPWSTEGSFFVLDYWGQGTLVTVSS VL: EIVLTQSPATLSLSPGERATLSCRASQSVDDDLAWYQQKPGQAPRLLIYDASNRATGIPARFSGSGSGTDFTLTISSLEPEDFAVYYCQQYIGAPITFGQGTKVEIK , report kon.
[A] 7.27e+06

[Q] For the binder STLM222 (antibody, from another filing, V domains shown) VH: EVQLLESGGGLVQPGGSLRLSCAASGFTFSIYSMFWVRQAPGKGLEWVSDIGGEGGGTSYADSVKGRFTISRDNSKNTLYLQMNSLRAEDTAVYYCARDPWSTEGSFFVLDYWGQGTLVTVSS VL: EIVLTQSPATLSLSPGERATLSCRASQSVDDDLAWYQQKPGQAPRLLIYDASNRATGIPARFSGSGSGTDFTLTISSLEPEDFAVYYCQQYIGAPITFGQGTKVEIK , report kon.
[A] 8.22e+06

[Q] For the binder STLM228 (antibody, from another filing, V domains shown) VH: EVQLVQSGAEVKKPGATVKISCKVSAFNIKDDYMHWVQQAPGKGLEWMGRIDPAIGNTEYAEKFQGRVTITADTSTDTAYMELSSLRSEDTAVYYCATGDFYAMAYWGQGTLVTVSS VL: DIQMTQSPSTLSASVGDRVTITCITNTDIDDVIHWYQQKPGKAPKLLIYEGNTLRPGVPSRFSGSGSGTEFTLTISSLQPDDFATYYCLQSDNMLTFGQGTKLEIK , report kon.
[A] 2.01e+07

[Q] For the binder STLM218 (antibody, from another filing, V domains shown) VH: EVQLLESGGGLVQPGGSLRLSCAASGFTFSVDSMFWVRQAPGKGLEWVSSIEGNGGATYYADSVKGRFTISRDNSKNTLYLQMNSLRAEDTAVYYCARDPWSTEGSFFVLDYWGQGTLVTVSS VL: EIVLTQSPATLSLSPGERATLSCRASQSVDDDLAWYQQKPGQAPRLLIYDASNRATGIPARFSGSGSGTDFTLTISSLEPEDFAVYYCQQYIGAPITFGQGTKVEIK , report kon.
[A] 9.89e+06

[Q] For the binder STLM215 (antibody, from another filing, V domains shown) VH: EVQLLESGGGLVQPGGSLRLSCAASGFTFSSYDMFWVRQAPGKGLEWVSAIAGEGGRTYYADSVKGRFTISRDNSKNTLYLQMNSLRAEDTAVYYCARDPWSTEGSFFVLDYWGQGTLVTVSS VL: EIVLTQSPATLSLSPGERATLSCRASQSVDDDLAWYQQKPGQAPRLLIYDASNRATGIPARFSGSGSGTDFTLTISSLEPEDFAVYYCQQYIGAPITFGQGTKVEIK , report kon.
[A] 6.91e+06
